Recorded z-score by entry
- Experimental protocol: CREB reporter modulators under forskolin, primary screen, cell-based, PC12, CRE-LacZ reporter, forskolin-stimulated (AID 1146);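 also: PC12 cells with 6xCRE LacZ reporter stimulated by forskolin 10 µM; beta-galactosidase reporter signal reflecting CREB driven transcription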
- Conditions used: luminescence, 4.5 h, higher = more signal, called active from +8 up or from −8 down
Calls of active or inactive are those of the source.

As a guide, the following entries are already answered.
Compound: N#Cc1ccc(NN2C(C(O)c3ccc(I)cc3)C=CC3C(=O)N(c4ccccc4)C(=O)C32)cc1 (stereo unspecified)
Readout: z-score
Result: -0.755 (inactive)
--
Compound: CC(=O)NCCCC[C@@H]1NC(=O)[C@@H]2C[C@H](C(=O)NCc3ccc(F)cc3)[C@H](c3cccc(OCCO)c3)N2C1=O
Readout: z-score
Result: 0.517 (inactive)
--
Compound: C=CCC(OC(C)=O)[C@@H]1[C@@H](N(Cc2ccc(-c3cccc(C(F)(F)F)c3)o2)C(=O)Cc2ccc(F)cc2)c2cc(OCCCO)ccc2N1C(=O)c1ccc(-c2ccccc2)cc1 (stereo partly specified)
Readout: z-score
Result: 0.875 (inactive)
--
Compound: COCCOC(=O)N1C(=O)[C@@]2(c3cc(C#CCC(C(=O)OC)C(=O)OC)ccc31)[C@H](C(=O)N1CCN(c3ncccn3)CC1)[C@H]1C(=O)O[C@H](c3ccccc3)[C@H](c3ccccc3)N1[C@@H]2c1ccc(O)cc1
Readout: z-score
Result: -0.784 (inactive)
--
Compound: COC(=O)C[C@H]1O[C@]2(C(=O)N(C)c3ccccc32)[C@@H](C)[C@@H]1[Si](C)(C)c1ccc(OC)cc1
Readout: z-score
Result: -1.58 (inactive)

Now look at this one.
Field request: z-score | item: `CC1=C([C@H](O)CCc2ccccc2)[C@H](CO)[C@@H]2C(=O)N(Cc3ccccc3)C(=O)[C@@H]2C1`
-0.425 (inactive)

Sourced from PubChem BioAssay
